system: biotinyl-Ile-oxazolone; assay: self-aminoacylation, catalytic enhancement (BIO) (fold over background); higher = more active; k-Seq, kA / k0A0; sequences stand for … in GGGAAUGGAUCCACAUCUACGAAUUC…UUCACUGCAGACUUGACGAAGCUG
Variants at the floor of the assay were thinned out.
Can you tell me self-aminoacylation for the items I'm about to list?
Give the figure only, with no unit attached.

Which self-aminoacylation reading was recorded for the sequence AUUAACAUAGGUCAUCGGGUG [Fam2.2 aminoacylation ribozyme variant] ?
3.92

Which self-aminoacylation reading was recorded for the sequence AAGUUCGCUAAUAGUCGCAGG [Fam3.1 aminoacylation ribozyme variant] ?
2.54

Which self-aminoacylation reading was recorded for the sequence AUACACCUAGGUCAUCGGGUA [Fam2.2 aminoacylation ribozyme variant] ?
4.01

Which self-aminoacylation reading was recorded for the sequence CGGUUUGCUAAUAGUCGCAAG [Fam3.1 aminoacylation ribozyme variant] ?
1.18

Which self-aminoacylation reading was recorded for the sequence GAGUUUGCUAAUAGUCGUAAG [Fam3.1 aminoacylation ribozyme variant] ?
1.4

Which self-aminoacylation reading was recorded for the sequence AUACACCUAGGUCAUCGGUUG [Fam2.2 aminoacylation ribozyme variant] ?
1.1

Which self-aminoacylation reading was recorded for the sequence CCACACUUCAAGCAAUUGAUC [Fam1B.1 aminoacylation ribozyme variant] ?
0.573

Which self-aminoacylation reading was recorded for the sequence CCACACGUCAAACAAUCGGUC [Fam1B.1 aminoacylation ribozyme variant] ?
1.21

Which self-aminoacylation reading was recorded for the sequence GUUACCCUGGUCAUCGAGGGA [Fam2.1 aminoacylation ribozyme variant] ?
3.06

Which self-aminoacylation reading was recorded for the sequence CCACACUUCAAGCAUUCGCUC [Fam1B.1 aminoacylation ribozyme variant] ?
2.27

Which self-aminoacylation reading was recorded for the sequence CCACACCUCAAGCAAUCAGUC [Fam1B.1 aminoacylation ribozyme variant] ?
0.843

Which self-aminoacylation reading was recorded for the sequence CUACUUCAAACAAUCGCUCUC [Fam1A.1 aminoacylation ribozyme variant] ?
0.621

Which self-aminoacylation reading was recorded for the sequence AAGUUUGCUAAUAAUCGGAAG [Fam3.1 aminoacylation ribozyme variant] ?
0.961

Which self-aminoacylation reading was recorded for the sequence AAGUUUGAUAAUAGUAGCAAG [Fam3.1 aminoacylation ribozyme variant] ?
0.724

Which self-aminoacylation reading was recorded for the sequence CCAGAAUUCAAGCAAUCGGUC [Fam1B.1 aminoacylation ribozyme variant] ?
1.91

Which self-aminoacylation reading was recorded for the sequence CCACACUUUAAGGAAUCGGUC [Fam1B.1 aminoacylation ribozyme variant] ?
0.862

Which self-aminoacylation reading was recorded for the sequence AUUACACUCGUCAUCGAGUGA [Fam2.1 aminoacylation ribozyme variant] ?
2.13

Which self-aminoacylation reading was recorded for the sequence GUACUUCAAACAAUUGGUCUG [Fam1A.1 aminoacylation ribozyme variant] ?
1.36
